Reference source: paper PMC10244445

Biological target: integrin αvβ3 (Homo sapiens, UniProt P05106+P06756)
Construct: gene ITGAV; purified human αvβ3 Integrin; with integrin αv subunit (ITGAV, P06756)
Sequence (P06756 31-889): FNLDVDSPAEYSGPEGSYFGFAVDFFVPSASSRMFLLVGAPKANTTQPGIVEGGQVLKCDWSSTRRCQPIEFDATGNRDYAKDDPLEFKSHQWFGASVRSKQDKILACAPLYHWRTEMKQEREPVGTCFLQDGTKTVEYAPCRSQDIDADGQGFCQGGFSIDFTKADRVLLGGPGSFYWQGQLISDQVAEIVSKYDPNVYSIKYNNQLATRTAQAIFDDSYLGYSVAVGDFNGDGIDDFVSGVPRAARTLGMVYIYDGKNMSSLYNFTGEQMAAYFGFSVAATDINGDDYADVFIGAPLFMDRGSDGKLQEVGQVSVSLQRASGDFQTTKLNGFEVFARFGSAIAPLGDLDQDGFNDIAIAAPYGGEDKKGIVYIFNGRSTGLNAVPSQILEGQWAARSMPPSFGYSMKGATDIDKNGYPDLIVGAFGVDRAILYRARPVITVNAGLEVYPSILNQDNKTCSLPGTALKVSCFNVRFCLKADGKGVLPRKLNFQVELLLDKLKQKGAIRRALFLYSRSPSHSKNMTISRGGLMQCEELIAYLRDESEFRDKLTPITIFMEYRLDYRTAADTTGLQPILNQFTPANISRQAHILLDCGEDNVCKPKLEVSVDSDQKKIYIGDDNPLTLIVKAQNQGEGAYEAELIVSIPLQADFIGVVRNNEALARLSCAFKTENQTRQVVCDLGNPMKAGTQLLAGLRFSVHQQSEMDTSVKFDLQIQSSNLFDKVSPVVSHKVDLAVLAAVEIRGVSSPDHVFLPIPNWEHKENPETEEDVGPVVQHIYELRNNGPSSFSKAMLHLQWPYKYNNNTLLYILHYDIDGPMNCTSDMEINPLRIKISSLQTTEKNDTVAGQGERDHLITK
Sequence (P06756 891-1048): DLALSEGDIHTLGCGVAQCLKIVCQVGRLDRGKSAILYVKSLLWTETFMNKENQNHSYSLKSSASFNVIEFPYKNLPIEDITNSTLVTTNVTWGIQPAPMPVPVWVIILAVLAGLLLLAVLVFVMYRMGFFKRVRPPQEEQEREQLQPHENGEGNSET
Sequence (P05106 27-788): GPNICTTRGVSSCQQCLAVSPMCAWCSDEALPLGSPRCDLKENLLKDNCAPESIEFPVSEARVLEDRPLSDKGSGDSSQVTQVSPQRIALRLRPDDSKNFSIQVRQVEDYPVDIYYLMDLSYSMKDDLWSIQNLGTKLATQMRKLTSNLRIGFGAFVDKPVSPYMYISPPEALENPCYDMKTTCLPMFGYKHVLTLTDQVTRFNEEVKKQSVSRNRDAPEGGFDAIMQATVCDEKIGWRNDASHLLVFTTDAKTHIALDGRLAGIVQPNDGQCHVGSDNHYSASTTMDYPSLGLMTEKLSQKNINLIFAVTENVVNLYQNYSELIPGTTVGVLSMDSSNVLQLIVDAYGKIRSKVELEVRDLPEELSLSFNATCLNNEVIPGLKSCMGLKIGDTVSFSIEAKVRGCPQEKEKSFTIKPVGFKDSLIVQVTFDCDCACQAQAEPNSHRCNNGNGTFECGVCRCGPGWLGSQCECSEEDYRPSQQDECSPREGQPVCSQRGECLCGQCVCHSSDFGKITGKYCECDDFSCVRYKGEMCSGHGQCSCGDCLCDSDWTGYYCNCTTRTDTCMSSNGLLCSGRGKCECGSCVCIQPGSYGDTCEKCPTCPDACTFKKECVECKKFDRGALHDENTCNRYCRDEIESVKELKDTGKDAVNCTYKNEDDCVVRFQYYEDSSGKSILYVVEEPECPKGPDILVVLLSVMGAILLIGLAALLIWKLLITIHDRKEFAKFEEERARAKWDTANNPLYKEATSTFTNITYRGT
Test: SPR (Biacore S200, integrin immobilized on CM5 chip, steady-state model)
Assay type: binding
Observed property: Kd
Answer with the figure and its unit, nothing else.

stdin: Record request: Kd value, item CC(C)[C@@H](O)CC[C@@H](C)[C@H]1CC[C@H]2[C@@H]3CC=C4C[C@@H](O)CC[C@]4(C)[C@H]3CC[C@]12C [24HC, 24-(S)-hydroxycholesterol]
stdout: 151 nM

----------
Biological target: integrin αvβ3 (Homo sapiens, UniProt P05106+P06756)
Construct: gene ITGAV; purified human αvβ3 Integrin; with integrin αv subunit (ITGAV, P06756)
Test: SPR (Biacore S200, integrin immobilized on CM5 chip, steady-state model)
Format: binding
Conditions: read-out: Kd
Observed property: Kd (nM)
Lab book: enter the figure in nM, no units written.

stdin: Record request: Kd value, item C[C@H](CCCC(C)(C)O)[C@H]1CC[C@H]2[C@@H]3CC=C4C[C@@H](O)CC[C@]4(C)[C@H]3CC[C@]12C [25HC, 25-hydroxycholesterol]
stdout: 56.6
